Would you kindly list pIC50 for each of these molecules?
Test system: HL-60
Assay: Cytotoxicity against Homo sapiens (human) HL60 cells assessed as growth inhibition after 48 hr by MTT assay
Format: functional, cell-based
Details: HL-60, 48 h
Please treat pIC50 as minus the base-10 logarithm of the molar concentration.

// returns reported pIC50 for input CC(C)=CC(=O)O[C@@H]1CC(C)(C)C[C@@H]2C3=CC[C@@H]4[C@@]5(C)CCC(=O)C(C)(C)[C@@H]5CC[C@@]4(C)[C@]3(C)CC[C@]21C(=O)O
4.72

// returns reported pIC50 for input C/C=C(/C)C(=O)O[C@@H]1CC(C)(C)C[C@H]2C3=CC[C@@H]4[C@@]5(C)CC[C@H](O)C(C)(C)[C@@H]5CC[C@@]4(C)[C@]3(C)CC[C@@]12C(=O)O
5.82

// returns reported pIC50 for input CC(C)=CC(=O)O[C@@H]1CC(C)(C)C[C@H]2C3=CC[C@@H]4[C@@]5(C)CC[C@H](O)C(C)(C)[C@@H]5CC[C@@]4(C)[C@]3(C)CC[C@@]12C(=O)O
5.68

// returns reported pIC50 for input C/C=C(/C)C(=O)O[C@@H]1CC(C)(C)C[C@H]2C3=CC[C@@H]4[C@@]5(C)CCC(=O)C(C)(C)[C@@H]5CC[C@@]4(C)[C@]3(C)CC[C@@]12C(=O)O
4.71
